Target: von Hippel-Lindau disease tumor suppressor/Tyrosine-protein kinase ABL1/Breakpoint cluster region protein (Homo sapiens, UniProt P00519+P11274+P40337)
Sequence (P00519 whole entry): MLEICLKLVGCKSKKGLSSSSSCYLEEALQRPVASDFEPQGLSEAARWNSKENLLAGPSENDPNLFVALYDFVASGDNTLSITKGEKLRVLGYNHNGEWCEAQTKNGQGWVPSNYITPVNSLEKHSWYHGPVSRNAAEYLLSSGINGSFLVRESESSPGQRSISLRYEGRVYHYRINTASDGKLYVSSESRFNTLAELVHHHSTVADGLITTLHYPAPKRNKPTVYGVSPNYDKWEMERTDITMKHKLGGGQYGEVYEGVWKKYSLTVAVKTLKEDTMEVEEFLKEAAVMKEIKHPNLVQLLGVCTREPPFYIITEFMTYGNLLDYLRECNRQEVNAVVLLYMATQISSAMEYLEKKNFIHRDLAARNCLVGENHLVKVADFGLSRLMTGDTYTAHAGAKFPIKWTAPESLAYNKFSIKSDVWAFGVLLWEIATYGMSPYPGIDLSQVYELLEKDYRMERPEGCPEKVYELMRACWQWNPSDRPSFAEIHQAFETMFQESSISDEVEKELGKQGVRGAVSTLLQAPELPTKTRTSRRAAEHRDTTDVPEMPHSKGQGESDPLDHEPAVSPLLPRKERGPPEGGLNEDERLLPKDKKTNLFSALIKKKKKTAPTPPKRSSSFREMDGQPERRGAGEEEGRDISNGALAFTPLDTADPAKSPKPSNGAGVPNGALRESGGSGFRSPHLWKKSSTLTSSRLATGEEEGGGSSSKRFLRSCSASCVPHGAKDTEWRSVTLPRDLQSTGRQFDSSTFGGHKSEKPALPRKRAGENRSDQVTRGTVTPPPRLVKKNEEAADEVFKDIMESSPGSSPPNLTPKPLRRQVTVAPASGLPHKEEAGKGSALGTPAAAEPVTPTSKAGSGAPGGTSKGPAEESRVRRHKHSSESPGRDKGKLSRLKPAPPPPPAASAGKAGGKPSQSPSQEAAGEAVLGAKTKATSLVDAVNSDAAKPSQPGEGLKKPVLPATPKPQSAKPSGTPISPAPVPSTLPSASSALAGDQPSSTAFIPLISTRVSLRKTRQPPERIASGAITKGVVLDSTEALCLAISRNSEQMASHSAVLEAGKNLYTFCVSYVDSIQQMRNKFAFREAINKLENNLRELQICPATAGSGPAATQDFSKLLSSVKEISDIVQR
Sequence (P11274 whole entry): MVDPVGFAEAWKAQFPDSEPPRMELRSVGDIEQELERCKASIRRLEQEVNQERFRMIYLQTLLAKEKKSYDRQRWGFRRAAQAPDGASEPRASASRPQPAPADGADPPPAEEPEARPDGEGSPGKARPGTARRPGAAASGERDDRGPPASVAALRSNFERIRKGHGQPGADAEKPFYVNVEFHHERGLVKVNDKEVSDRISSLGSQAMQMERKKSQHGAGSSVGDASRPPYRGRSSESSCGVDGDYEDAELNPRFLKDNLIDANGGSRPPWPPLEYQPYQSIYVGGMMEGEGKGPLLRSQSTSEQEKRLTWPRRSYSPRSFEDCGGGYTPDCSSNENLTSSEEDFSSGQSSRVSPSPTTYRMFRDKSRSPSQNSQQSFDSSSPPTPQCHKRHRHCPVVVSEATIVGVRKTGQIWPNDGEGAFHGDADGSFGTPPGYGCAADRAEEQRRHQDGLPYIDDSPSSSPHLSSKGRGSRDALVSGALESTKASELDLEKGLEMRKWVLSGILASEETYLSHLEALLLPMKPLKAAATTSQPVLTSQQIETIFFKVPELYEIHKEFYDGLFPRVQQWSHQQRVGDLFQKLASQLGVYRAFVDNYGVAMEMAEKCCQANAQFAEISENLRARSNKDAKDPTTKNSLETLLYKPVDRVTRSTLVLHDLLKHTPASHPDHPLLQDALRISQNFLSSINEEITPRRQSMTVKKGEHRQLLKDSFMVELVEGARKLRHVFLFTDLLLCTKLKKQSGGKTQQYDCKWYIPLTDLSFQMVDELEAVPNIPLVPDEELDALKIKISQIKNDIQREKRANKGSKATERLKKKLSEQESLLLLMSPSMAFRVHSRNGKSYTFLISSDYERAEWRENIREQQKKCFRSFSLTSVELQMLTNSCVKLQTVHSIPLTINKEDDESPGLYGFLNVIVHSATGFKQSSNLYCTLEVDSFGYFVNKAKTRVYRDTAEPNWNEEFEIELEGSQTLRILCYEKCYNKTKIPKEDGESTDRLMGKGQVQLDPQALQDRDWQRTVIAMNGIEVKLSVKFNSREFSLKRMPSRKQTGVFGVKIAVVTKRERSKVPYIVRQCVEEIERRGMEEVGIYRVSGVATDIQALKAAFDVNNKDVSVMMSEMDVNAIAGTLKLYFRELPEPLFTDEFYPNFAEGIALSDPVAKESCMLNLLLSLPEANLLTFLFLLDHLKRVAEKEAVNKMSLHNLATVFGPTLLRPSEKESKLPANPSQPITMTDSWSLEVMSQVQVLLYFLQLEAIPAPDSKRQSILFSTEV
Sequence (P40337 whole entry): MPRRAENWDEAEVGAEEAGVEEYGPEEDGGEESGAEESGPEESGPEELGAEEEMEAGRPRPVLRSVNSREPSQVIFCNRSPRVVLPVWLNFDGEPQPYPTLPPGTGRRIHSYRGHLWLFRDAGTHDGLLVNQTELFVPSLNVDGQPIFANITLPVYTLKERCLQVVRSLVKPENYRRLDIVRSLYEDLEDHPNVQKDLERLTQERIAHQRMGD
Assay: PROTAC activity at VHL/BCR-Abl (unknown origin) assessed as induction of BCR-Abl degradation by cell based assay
PROPERTY MEASURED: EC50 (µM)
Field format: number, assumed µM, no unit text.

q: Entry `Cc1ncsc1-c1ccc(CNC(=O)[C@@H]2C[C@@H](O)CN2C(=O)[C@@H](NC(=O)COCCOc2ccc(-c3cc(Nc4ccc(OC(F)(F)F)cc4)ncn3)cc2)C(C)(C)C)cc1` : reported EC50 = ?
a: 0.34

====

Target: Protein cereblon/Tyrosine-protein kinase BTK (Homo sapiens, UniProt Q06187+Q96SW2, C481S)
Sequence (Q06187 2-659 C481S limits assumed, stated change not applied): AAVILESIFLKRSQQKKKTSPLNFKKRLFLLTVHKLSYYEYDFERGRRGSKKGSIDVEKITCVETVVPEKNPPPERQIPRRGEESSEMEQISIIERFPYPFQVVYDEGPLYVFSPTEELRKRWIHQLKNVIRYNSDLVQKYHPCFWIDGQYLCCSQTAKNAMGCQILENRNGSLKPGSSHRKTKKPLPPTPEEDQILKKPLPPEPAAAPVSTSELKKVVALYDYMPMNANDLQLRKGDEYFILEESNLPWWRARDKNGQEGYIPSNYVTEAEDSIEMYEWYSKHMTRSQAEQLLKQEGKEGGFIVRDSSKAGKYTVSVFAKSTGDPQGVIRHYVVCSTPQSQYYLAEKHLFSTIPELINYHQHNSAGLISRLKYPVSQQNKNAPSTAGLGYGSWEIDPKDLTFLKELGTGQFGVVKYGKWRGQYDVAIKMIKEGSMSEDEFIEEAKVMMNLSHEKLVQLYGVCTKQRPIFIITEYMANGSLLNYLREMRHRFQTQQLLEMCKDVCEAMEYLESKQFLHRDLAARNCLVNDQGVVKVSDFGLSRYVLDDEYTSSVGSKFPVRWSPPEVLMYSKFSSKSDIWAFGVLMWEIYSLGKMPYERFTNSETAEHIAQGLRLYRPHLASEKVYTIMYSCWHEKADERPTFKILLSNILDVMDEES
Sequence (Q96SW2 whole entry, stated change not applied): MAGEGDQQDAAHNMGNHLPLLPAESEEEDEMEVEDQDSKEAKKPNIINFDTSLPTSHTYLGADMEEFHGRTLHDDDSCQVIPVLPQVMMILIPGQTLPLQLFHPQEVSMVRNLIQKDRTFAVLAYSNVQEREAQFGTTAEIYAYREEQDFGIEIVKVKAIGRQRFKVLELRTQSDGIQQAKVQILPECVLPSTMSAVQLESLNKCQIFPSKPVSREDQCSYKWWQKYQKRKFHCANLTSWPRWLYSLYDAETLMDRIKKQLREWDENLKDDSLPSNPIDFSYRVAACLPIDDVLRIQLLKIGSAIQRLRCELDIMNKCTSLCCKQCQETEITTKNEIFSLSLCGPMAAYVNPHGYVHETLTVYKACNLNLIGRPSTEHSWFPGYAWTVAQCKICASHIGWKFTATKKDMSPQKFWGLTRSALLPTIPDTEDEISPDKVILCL
Experiment: PROTAC activity at CRBN/BTK C481S mutant transfected in human HeLa cells assessed as induction of BTK C481S degradation incubated for 4 days by immunoblot analysis
Type: cell-based
PROPERTY MEASURED: pEC50
Remember, pEC50 is on a log scale: it is -log10 of the molar concentration.

q: GET /values?readout=pEC50&system=Protein cereblon/Tyrosine-protein kinase BTK (Homo sapiens, UniProt Q06187+Q96SW2, C481S)&item= Nc1ncnc2c1c(-c1ccc(Oc3ccccc3)cc1)nn2[C@@H]1CCCN(C(=O)c2cn(CCOCCOCCOCCNc3cccc4c3C(=O)N(C3CCC(=O)NC3=O)C4=O)nn2)C1 (stereo partly specified)
a: 7.52

====

// reported pEC50 for each item listed
Target: Protein cereblon/Tyrosine-protein kinase BTK (Homo sapiens, UniProt Q06187+Q96SW2)
Sequence (Q06187 whole entry, one chain of several): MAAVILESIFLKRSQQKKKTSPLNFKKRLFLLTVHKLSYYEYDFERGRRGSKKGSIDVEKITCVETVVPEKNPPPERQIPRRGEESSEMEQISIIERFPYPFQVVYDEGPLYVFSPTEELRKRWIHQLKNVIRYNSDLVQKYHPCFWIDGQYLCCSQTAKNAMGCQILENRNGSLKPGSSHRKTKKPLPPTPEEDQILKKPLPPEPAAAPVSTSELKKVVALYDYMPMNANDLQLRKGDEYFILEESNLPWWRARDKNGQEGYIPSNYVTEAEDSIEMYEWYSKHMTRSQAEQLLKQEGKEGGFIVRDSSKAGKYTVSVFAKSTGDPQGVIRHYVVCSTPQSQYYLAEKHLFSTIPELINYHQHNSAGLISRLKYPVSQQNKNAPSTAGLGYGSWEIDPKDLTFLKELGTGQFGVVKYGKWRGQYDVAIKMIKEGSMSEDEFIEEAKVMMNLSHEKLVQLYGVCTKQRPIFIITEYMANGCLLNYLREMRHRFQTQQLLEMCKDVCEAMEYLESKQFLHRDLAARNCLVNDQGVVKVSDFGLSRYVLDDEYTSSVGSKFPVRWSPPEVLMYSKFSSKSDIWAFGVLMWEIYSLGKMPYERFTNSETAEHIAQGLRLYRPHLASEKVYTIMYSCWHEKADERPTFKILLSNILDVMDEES
Assay: PROTAC activity at CRBN/BTK in human MINO cells assessed as reduction in BTK level incubated for 24 hrs by Western blot analysis
Remember, pEC50 is on a log scale: it is -log10 of the molar concentration.

CC(C)(/C=C(\C#N)C(=O)N1CCC[C@H](n2nc(-c3ccc(Oc4ccccc4)cc3)c3c(N)ncnc32)C1)CCCOCCOCCOCCOCCOc1cccc2c1C(=O)N(C1CCC(=O)NC1=O)C2=O (stereo partly drawn) ... 8.00
Nc1ncnc2c1c(-c1ccc(Oc3ccccc3)cc1)nn2[C@H]1CCCN(C(=O)/C=C/CCCCOCCOCCOCCOCCOc2cccc3c2C(=O)N(C2CCC(=O)NC2=O)C3=O)C1 (stereo partly drawn) ... 8.00

# evaluate next
q: Entry Nc1ncnc2c1c(-c1ccc(Oc3ccccc3)cc1)nn2[C@H]1CCCN(C(=O)CCCCCCOCCOCCOCCOCCOc2cccc3c2C(=O)N(C2CCC(=O)NC2=O)C3=O)C1 (stereo partly drawn) : reported pEC50 = ?
a: 8.66

====

Target: von Hippel-Lindau disease tumor suppressor/Mitogen-activated protein kinase 14 (Homo sapiens, UniProt P40337+Q16539)
Experiment: PROTAC activity at VHL/p38alpha in human MDA-MB-231 cells assessed as induction of p38alpha degradation incubated for 24 hrs by Western blot analysis
PROPERTY MEASURED: EC50

q: Entry `COc1cc2c(Oc3ccc(NC(=O)C4(C(=O)Nc5ccc(F)cc5)CC4)cc3F)cccc2cc1OCCCOCCCOCCC(=O)N[C@H](C(=O)N1C[C@H](O)C[C@H]1C(=O)NCc1ccc(-c2scnc2C)cc1)C(C)(C)C` : reported EC50 = ?
a: 0.21 µM

====

Target: Protein cereblon/Indoleamine 2,3-dioxygenase 1 (Homo sapiens, UniProt P14902+Q96SW2)
Sequence (P14902 whole entry): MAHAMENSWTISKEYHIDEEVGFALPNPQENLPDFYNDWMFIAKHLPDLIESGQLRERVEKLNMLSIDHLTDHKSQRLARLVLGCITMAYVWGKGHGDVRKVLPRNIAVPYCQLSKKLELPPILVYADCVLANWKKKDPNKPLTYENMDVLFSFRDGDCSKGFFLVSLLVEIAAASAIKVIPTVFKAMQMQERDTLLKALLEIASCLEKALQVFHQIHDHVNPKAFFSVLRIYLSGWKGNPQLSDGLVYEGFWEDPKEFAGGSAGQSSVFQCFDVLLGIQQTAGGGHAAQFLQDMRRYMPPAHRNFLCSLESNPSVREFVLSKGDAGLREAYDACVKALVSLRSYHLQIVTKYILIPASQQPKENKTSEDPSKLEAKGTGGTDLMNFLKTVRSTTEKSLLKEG
Sequence (Q96SW2 whole entry): as the sequence (Q96SW2 whole entry, stated change not applied) above
Test: PROTAC activity at CRBN/IDO1 in human HeLa cells assessed as induction of IDO1 degradation incubated for 24 hrs by immunoblot analysis
PROPERTY MEASURED: EC50 (nM)
Field format: number, assumed nM, no unit text.

q: Entry O=C1CCC(N2C(=O)c3cccc(NCCOCCOCCOCCOCCOCCOCCOCCNCCNc4nonc4/C(=N/O)Nc4ccc(F)c(Br)c4)c3C2=O)C(=O)N1 (stereo unspecified) : reported EC50 = ?
a: 2840
